Assay Target: Peroxisome proliferator-activated receptor gamma (Mus musculus)
Sequence (whole entry): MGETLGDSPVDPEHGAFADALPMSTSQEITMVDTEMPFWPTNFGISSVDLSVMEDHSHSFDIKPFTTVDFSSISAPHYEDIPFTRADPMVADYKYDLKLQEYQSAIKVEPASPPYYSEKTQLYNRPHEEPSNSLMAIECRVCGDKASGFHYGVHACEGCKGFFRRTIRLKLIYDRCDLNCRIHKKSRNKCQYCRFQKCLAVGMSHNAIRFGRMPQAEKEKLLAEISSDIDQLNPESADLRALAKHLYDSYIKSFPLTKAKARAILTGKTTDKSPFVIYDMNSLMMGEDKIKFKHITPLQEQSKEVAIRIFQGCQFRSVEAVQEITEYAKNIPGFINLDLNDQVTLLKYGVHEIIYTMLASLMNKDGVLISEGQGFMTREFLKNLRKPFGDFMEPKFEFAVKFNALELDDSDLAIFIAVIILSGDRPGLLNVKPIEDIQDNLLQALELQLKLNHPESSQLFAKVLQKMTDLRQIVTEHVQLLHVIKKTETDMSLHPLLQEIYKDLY
Experiment Description: Agonist activity at Mus musculus (mouse) PPARgamma LBD expressed in african green monkey CV-1 cells co-expressing GAL4 assessed as […] at 1 uM after 24 hr by luciferase assay relative to rosiglitazone
Format: cell-based
Recorded %max values for a group of compounds are listed next.
Observation Type: %max (%)

{"Compound": "CCCc1nc2c(C)cc(Br)cc2n1CCOc1ccc(CC2SC(=O)NC2=O)cc1C(=O)OC (stereo not given)", "Observation Type": "%max", "Value Units": "%", "Measured Result": 51.6}
{"Compound": "CCCc1nc2c(C)cc(-c3ccccc3)cc2n1CCOc1ccc(CC2SC(=O)NC2=O)cc1C(=O)OC (stereo not given)", "Observation Type": "%max", "Value Units": "%", "Measured Result": 11.9}
{"Compound": "COC(=O)c1cc(CC2SC(=O)NC2=O)ccc1OCCN(C)C(=O)CCCCC1CCCCC1 (stereo not given)", "Observation Type": "%max", "Value Units": "%", "Measured Result": 90.4}
{"Compound": "COC(=O)c1cc(CC2SC(=O)NC2=O)ccc1OCCn1c(CCCCC2CCCCC2)nc2ccccc21 (stereo not given)", "Observation Type": "%max", "Value Units": "%", "Measured Result": 38.7}
{"Compound": "CCCc1nc2c(C)cc(-c3nc4ccccc4n3C)cc2n1Cc1ccc(-c2ccccc2C(=O)O)cc1", "Observation Type": "%max", "Value Units": "%", "Measured Result": 21.2}
